- EXPERIMENTAL DETAILS: Selectivity index, ratio of CC50 for mock infected human MT4 cells to EC50 for HIV1 3B infected in human MT4 cells
- Format: toxicity, cell-based
- COND: read-out: Ratio CC50/EC50
Listed compounds paired with reported selectivity ratio

Cc1ccc(Nc2nc(Nc3ccc(Cl)cc3)cc(Oc3c(C)cc(C#N)cc3C)n2)cc1
> 9
Cc1cccc(Nc2cc(Oc3c(C)cc(C)cc3C)nc(Nc3ccc(C#N)cc3)n2)c1
< 1

We next turn to a different compound, shown below.
Task item: What selectivity ratio value was documented for this compound, Cc1cn([C@H]2C[C@H](N=[N+]=[N-])[C@@H](CO)O2)c(=O)[nH]c1=O [ZIDOVUDINE] ?
Reply: > 1000

* * *

- EXPERIMENTAL DETAILS: Cytotoxicity against mock infected human MT4 cells after 4 days by MTT assay
- Format: cell-based
Listed molecules paired with reported CC50 at 96 h

Before answering, review these 5 worked examples.
Cc1cn([C@H]2C[C@H](N=[N+]=[N-])[C@@H](CO)O2)c(=O)[nH]c1=O
> 7.48 µM
Cc1ccc(Nc2nc(Nc3ccc(Cl)cc3)cc(Oc3c(C)cc(C#N)cc3C)n2)cc1
> 274 µM
O=C1Nc2ccc(Cl)cc2[C@@](C#CC2CC2)(C(F)(F)F)O1
> 6.34 µM
Cc1ccnc2c1NC(=O)c1cccnc1N2C1CC1
> 15 µM
Nc1ccn([C@H]2CS[C@@H](CO)O2)c(=O)n1
> 87.2 µM

We next turn to a different molecule, shown below.
Task item: What CC50 at 96 h value was documented for this molecule, "O=c1[nH]cnc2c1ncn2[C@H]1CC[C@@H](CO)O1" ?
Reply: > 212 µM
